- assayed system: Carbonic anhydrase 1 (Homo sapiens, UniProt P00915)
- Sequence (P00915 whole entry): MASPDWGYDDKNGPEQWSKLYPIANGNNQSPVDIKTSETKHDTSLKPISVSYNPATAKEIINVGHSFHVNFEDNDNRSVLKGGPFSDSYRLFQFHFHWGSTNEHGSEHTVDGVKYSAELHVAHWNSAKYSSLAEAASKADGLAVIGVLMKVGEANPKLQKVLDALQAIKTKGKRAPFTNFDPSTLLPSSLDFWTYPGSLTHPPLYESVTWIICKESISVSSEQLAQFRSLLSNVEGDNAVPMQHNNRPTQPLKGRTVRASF
value kind: Ki (mM)
Only the number, expressed in mM, is required.

Query :: Give the reported Ki for `F[P-](F)(F)(F)(F)F.[Na+]` (system: Carbonic anhydrase 1 (Homo sapiens, UniProt P00915)).
Result :: 11

###

- assayed system: Carbonic anhydrase 4 (Homo sapiens)
- Sequence (P22748 whole entry): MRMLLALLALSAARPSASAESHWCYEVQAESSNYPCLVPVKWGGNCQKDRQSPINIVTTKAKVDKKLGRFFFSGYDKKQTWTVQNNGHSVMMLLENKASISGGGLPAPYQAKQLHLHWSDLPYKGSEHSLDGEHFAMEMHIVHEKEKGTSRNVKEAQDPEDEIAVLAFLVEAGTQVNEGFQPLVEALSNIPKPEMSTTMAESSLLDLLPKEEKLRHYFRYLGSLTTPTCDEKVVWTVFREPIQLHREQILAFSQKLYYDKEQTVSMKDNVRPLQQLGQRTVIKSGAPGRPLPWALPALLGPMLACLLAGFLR
value kind: pKi
// pKi is dimensionless: -log10 of concentration (M)

Query :: Observed pKi on Carbonic anhydrase 4 (Homo sapiens) for `F[P-](F)(F)(F)(F)F.[Na+]` , please.
Result :: 1.72
